- Subject of test: T1, GST-LIM Mystique PDZ domain 1 (Homo sapiens (Human)), Q96JY6
- T1 chain: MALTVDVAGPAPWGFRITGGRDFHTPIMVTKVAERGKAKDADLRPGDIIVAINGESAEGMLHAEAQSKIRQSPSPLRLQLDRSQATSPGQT
- Assay overview: G' assay; note: key of the grades not given here
Value type: Classification (A450 class)
Write it as a number; the unit A450 class goes unstated.

Return Classification for the following binder: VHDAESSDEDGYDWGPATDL (modifications not checked) [zona occludens 3 (ZO-3) PL peptide] 2

Return Classification for the following binder: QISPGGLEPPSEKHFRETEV (modifications not checked) [TAX] 1

Return Classification for the following binder: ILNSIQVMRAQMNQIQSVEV (modifications not checked) [ephrin B2] 1

Return Classification for the following binder: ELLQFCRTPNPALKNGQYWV (modifications not checked) [CSPG4 (chondroitin sulfae proteoglycan 4, melanoma-associated)] 2

Return Classification for the following binder: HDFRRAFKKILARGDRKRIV (modifications not checked) [alpha-2A Adrenergic receptor] 1

Return Classification for the following binder: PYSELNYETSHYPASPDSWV (modifications not checked) [catenin - delta 2] 5
